system: EpCAM; experiment: Spot phage ELISA, EpCAM; type: binding, human; details: spot phage ELISA signal-to-noise on EpCAM
Where no end group is shown, it is not given here.
Would you mind telling me the reported S/N of each entry?
Lab note: record just the number, no unit beside it.

Query: Which value of S/N has been reported for GPTQSHYGQCGGQGYIGAIMCSGTTCQMRSLPASQCLPGAS (disulfide (positions not given here)) [EpCAM CBD 20] in the records?
Reply: 17.5

Query: Which value of S/N has been reported for GPTQSHYGQCGGRGYFGALRCSGTTCQYVTMIESQCLPGAS (disulfide (positions not given here)) [EpCAM CBD 80] in the records?
Reply: 7.3

Query: Which value of S/N has been reported for GPTQSHYGQCGGHGYHGWAICSGTTCQERIRHLSQCLPGAS (disulfide (positions not given here)) [EpCAM CBD 41] in the records?
Reply: 11.6
